# method-description: in vivo
# Design: species or system mice
# test-context: male, NODSCID 1L2RγKO, mouse, iv, total radioactivity, Lungs uptake
Consider the following molecules; for each one, report its tissue uptake at 120 h.

Worked cases, tissue uptake at 120 h given:
{"molecule": "COc1ccc(CCCC(=O)NCC(=O)N[C@@H](CCCCNC(=O)CN2CCN(CC(=O)O)CCN(CC(=O)O)CCN(CC(=O)O)CC2)C(=O)NC[C@H]2CC[C@H](C(=O)N[C@@H](Cc3c4ccccc4cc4ccccc34)C(=O)NCCCC[C@H](NC(=O)N[C@@H](COCC(=O)O)C(=O)O)C(=O)O)CC2)cc1 [177Lu-HTK04028, metal not drawn]", "tissue uptake at 120 h": "0.09 %ID/g"}
{"molecule": "O=C(O)CCC[C@H](NC(=O)N[C@@H](CCCCNC(=O)[C@H](Cc1c2ccccc2cc2ccccc12)NC(=O)[C@H]1CC[C@H](CNC(=O)CN2CCN(CC(=O)O)CCN(CC(=O)O)CCN(CC(=O)O)CC2)CC1)C(=O)O)C(=O)O [177Lu-HTK03149, metal not drawn]", "tissue uptake at 120 h": "0.09 %ID/g"}
{"molecule": "COc1ccc(CCCC(=O)NCC(=O)N[C@@H](CCCCNC(=O)CN2CCN(CC(=O)O)CCN(CC(=O)O)CCN(CC(=O)O)CC2)C(=O)NC[C@H]2CC[C@H](C(=O)N[C@@H](Cc3c4ccccc4cc4ccccc34)C(=O)NCCCC[C@H](NC(=O)N[C@@H](CCCC(=O)O)C(=O)O)C(=O)O)CC2)cc1 [177Lu-HTK03170, metal not drawn]", "tissue uptake at 120 h": "0.06 %ID/g"}
{"molecule": "O=C(O)CCC[C@H](NC(=O)N[C@@H](CCCCNC(=O)[C@H](Cc1c2ccccc2cc2ccccc12)NC(=O)[C@H]1CC[C@H](CNC(=O)[C@H](CCCCNC(=O)CN2CCN(CC(=O)O)CCN(CC(=O)O)CCN(CC(=O)O)CC2)NC(=O)CNC(=O)CCCc2ccc(Cl)cc2)CC1)C(=O)O)C(=O)O [177Lu-HTK03153, metal not drawn]", "tissue uptake at 120 h": "0.56 %ID/g"}

Turning to the following molecule.
Request: Name the recorded tissue uptake at 120 h for COc1ccc(CCCC(=O)NCC(=O)N[C@@H](CCCCNC(=O)CN2CCN(CC(=O)O)CCN(CC(=O)O)CCN(CC(=O)O)CC2)C(=O)NC[C@H]2CC[C@H](C(=O)N[C@@H](Cc3c4ccccc4cc4ccccc34)C(=O)NCCCC[C@H](NC(=O)N[C@@H](CSCC(=O)O)C(=O)O)C(=O)O)CC2)cc1 [177Lu-HTK04048, metal not drawn] .
Response: 0.15 %ID/g

###

# method-description: in vivo
# test-context: male, NODSCID 1L2RγKO, mouse, iv, total radioactivity, Spleen uptake
Consider the following compounds; for each one, report its tissue uptake at 1 h.
Numbers only, in %ID/g.

Worked cases, tissue uptake at 1 h given:
{"compound": "O=C(O)CN1CCN(CC(=O)O)CCN(CC(=O)NC[C@H]2CC[C@H](C(=O)N[C@@H](Cc3c4ccccc4cc4ccccc34)C(=O)NCCCC[C@H](NC(=O)N[C@@H](C[C@@H](F)C(=O)O)C(=O)O)C(=O)O)CC2)CCN(CC(=O)O)CC1 [68Ga-HTK04033, metal not drawn]", "readout-unit": "%ID/g", "tissue uptake at 1 h": 0.19}
{"compound": "O=C(O)CCC[C@H](NC(=O)N[C@@H](CCCCNC(=O)[C@H](Cc1c2ccccc2cc2ccccc12)NC(=O)[C@H]1CC[C@H](CNC(=O)CN2CCN(CC(=O)O)CCN(CC(=O)O)CCN(CC(=O)O)CC2)CC1)C(=O)O)C(=O)O [68Ga-HTK03149, metal not drawn]", "readout-unit": "%ID/g", "tissue uptake at 1 h": 0.37}
{"compound": "O=C(O)CCCCC(NC(=O)N[C@@H](CCCCNC(=O)[C@H](Cc1c2ccccc2cc2ccccc12)NC(=O)[C@H]1CC[C@H](CNC(=O)CN2CCN(CC(=O)O)CCN(CC(=O)O)CCN(CC(=O)O)CC2)CC1)C(=O)O)C(=O)O (single isomer, unassigned) [68Ga-HTK03189A, metal not drawn]", "readout-unit": "%ID/g", "tissue uptake at 1 h": 0.21}
{"compound": "O=C(O)CCC[C@H](NC(=O)N[C@@H](CCCCNC(=O)[C@H](Cc1c2ccccc2cc2ccccc12)NC(=O)Cc1cccc(CNC(=O)CN2CCN(CC(=O)O)CCN(CC(=O)O)CCN(CC(=O)O)CC2)c1)C(=O)O)C(=O)O [68Ga-HTK04037, metal not drawn]", "readout-unit": "%ID/g", "tissue uptake at 1 h": 0.24}
{"compound": "O=C(O)CC[C@H](NC(=O)N[C@@H](CCCCNC(=O)[C@H](Cc1c2ccccc2cc2ccccc12)NC(=O)[C@H]1CC[C@H](CNC(=O)CN2CCN(CC(=O)O)CCN(CC(=O)O)CCN(CC(=O)O)CC2)CC1)C(=O)O)C(=O)O [68Ga-HTK03041, metal not drawn]", "readout-unit": "%ID/g", "tissue uptake at 1 h": 8.95}

Give one value of tissue uptake at 1 h per listed compound.
1. O=C(O)CSC[C@H](NC(=O)N[C@@H](CCCCNC(=O)[C@H](Cc1c2ccccc2cc2ccccc12)NC(=O)[C@H]1CC[C@H](CNC(=O)CN2CCN(CC(=O)O)CCN(CC(=O)O)CCN(CC(=O)O)CC2)CC1)C(=O)O)C(=O)O [68Ga-HTK03177, metal not drawn]
2. O=C(O)CN1CCN(CC(=O)O)CCN(CC(=O)NC[C@H]2CC[C@H](C(=O)N[C@@H](Cc3c4ccccc4cc4ccccc34)C(=O)NCCCC[C@H](NC(=O)N[C@@H](C[C@H](F)C(=O)O)C(=O)O)C(=O)O)CC2)CCN(CC(=O)O)CC1 [68Ga-HTK04040, metal not drawn]
3. O=C(O)COC[C@H](NC(=O)N[C@@H](CCCCNC(=O)[C@H](Cc1c2ccccc2cc2ccccc12)NC(=O)[C@H]1CC[C@H](CNC(=O)CN2CCN(CC(=O)O)CCN(CC(=O)O)CCN(CC(=O)O)CC2)CC1)C(=O)O)C(=O)O [68Ga-HTK03187, metal not drawn]

Response:
0.42
2.58
0.17
